Test system: waterhemp (common waterhemp, Amaranthus rudis)
Assay Comment: Test C greenhouse herbicide test, pre- and postemergence
Assay type: in vivo
Settings: Preemergence, 125 g ai/ha; scale 0 to 100, 0 is no effect, 100 is complete control
Each entry below carries its recorded Plant response rating, Waterhemp.
Reply with the value as a number alone.

Answered cases to consult:
| Molecular String | Plant response rating, Waterhemp |
| --- | --- |
| CCCC(=O)Oc1c(C)nn(C)c(=O)c1-c1c(CC)sc2ccc(C)cc12 | 95 |
| Cc1ccc2ccccc2c1-c1c(O)c(C(F)(F)F)nn(C)c1=O | 75 |
| CCCC(=O)Oc1c(C)nn(C)c(=O)c1-c1c(C)sc2ccc(C)cc12 | 100 |

Now turn to the next compound.
Given CC(=O)Oc1c(C)nn(C)c(=O)c1-c1c(C)sc2ccc(Cl)cc12 , state its recorded Plant response rating, Waterhemp.
100

---

System: pigweed (Amaranthus retroflexus)
Assay Comment: Test C greenhouse herbicide test, pre- and postemergence
Type: in vivo
Settings: Preemergence, 125 g ai/ha; scale 0 to 100, 0 is no effect, 100 is complete control
Entries and their Plant response rating, Pigweed
Respond with the number and no other words.

| Molecular String | System Name | Plant response rating, Pigweed |
| --- | --- | --- |
| Cc1cc(C)c2sc(C)c(-c3c(O)c(C)nn(C)c3=O)c2c1 | pigweed (Amaranthus retroflexus) | 100 |

GET /values?readout=Plant response rating, Pigweed&item= CC(=O)Oc1c(Cl)nn(C)c(=O)c1-c1c(C)sc2ccc(C(F)(F)F)cc12
100

# input compound: Cc1nn(C)c(=O)c(-c2c(C)sc3ccc(C(F)(F)F)cc23)c1O ; wanted: its Plant response rating, Pigweed
90

Which Plant response rating, Pigweed value is on record for CCc1ccc2ccccc2c1-c1c(O)c(C)nn(C)c1=O ?
100

---

Tested on: sandbur (southem sandbur, Cenchrus echinatus)
Assay Comment: Test E greenhouse herbicide test, pre- and postemergence
Assay type: in vivo
Settings: 62 g ai/ha, Preemergence; scale 0 to 100 (0 no effect, 100 complete control)
Listed compounds paired with reported Plant response rating, Sandbur
I only need the number, thanks.

Example entries and their recorded answers appear below.
| Molecular String | Plant response rating, Sandbur |
| --- | --- |
| CCc1sc2c(C)cc(C)cc2c1-c1c(O)c(C)nn(C)c1=O | 0 |
| Cc1cc(C)c2ccccc2c1-c1c(O)c(C)nn(C)c1=O | 80 |
| Cc1nn(C)c(=O)c(-c2ccc(F)c3ccccc23)c1O | 70 |

Which Plant response rating, Sandbur is reported for this compound? CCCC(=O)Oc1c(C)nn(C)c(=O)c1-c1c(C)sc2ccc(C)cc12
70

---

Test system: speedwell (bird's-eye speedwell, Veronica persica)
Assay Comment: Test D controlled growth environment herbicide test, pre- and postemergence
Type: in vivo
Settings: Postemergence, 250 g ai/ha; scale 0 to 100 (0 no effect, 100 complete control)
Assay Readout: Plant response rating, Speedwell
// response body must contain only the number

| Molecular String | Plant response rating, Speedwell |
| --- | --- |
| CCc1sc2ccc(C)cc2c1-c1c(O)c(C)nn(C)c1=O | 50 |
| Cc1nn(C)c(=O)c(-c2cccc3ccccc23)c1O | 100 |
| CC(=O)Oc1c(C)nn(C)c(=O)c1-c1c(C)sc2ccc(Cl)cc12 | 80 |

Need Plant response rating, Speedwell of Cn1nc(Br)c(O)c(-c2cccc3ccccc23)c1=O , thanks.
100

---

Below: a set of entries, each annotated with reported Plant response rating, Morningglory.
Tested on: momingglory (Ipomoea coccinea)
Assay Comment: Test E greenhouse herbicide test, pre- and postemergence
Assay type: in vivo
Settings: Preemergence, 31 g ai/ha; scale 0 to 100, 0 no effect, 100 complete control
Lab note: write the figure by itself, no unit.

Reference set (5 entries):
| Molecular String | Plant response rating, Morningglory |
| --- | --- |
| Cc1nn(C)c(=O)c(-c2ccc(F)c3ccccc23)c1O | 30 |
| Cc1cc(C)c2sc(C)c(-c3c(O)c(C)nn(C)c3=O)c2c1 | 75 |
| COC(=O)Oc1c(C)nn(C)c(=O)c1-c1c(C)sc2ccc(C)cc12 | 65 |
| Cn1nc(Br)c(O)c(-c2cccc3ccccc23)c1=O | 20 |
| Cc1ccc2sc(C)c(-c3c(OC(=O)OC(C)C)c(C)nn(C)c3=O)c2c1 | 0 |

Name the reported Plant response rating, Morningglory value associated with the compound Cc1cc2ccccc2c(-c2c(O)c(C)nn(C)c2=O)c1C
0

---

Form field: Kochia plant response rating (one value per entry).
Tested on: kochia (Kochia scoparia)
Assay Comment: Test C greenhouse herbicide test, postemergence
Assay type: in vivo
Settings: postemergence, 62 g ai/ha; scale 0 to 100, 0 no effect, 100 complete control
Excerpt: At the same time, plants selected from these crop and weed species and also chickweed (common chickweed, Stellaria media), kochia (Kochia scoparia), and oat, wild (wild oat, Avena fatua), were planted in pots containing Redi-Earth® planting medium (Scotts Company, 14111 Scottslawn Road, Marysville, Ohio 43041) comprising spaghnum peat moss, vermiculite, wetting agent and starter nutrients and treated with postemergence applications of test chemicals formulated in the same manner. […]
Please give the numeric answer without any surrounding text.

| Molecular String | Assay Readout | Endpoint Value |
| --- | --- | --- |
| Cc1ccc2ccccc2c1-c1c(O)c(Br)nn(C)c1=O | Kochia plant response rating | 95 |
| Cc1cc(C)c2sc(C)c(-c3c(O)c(C)nn(C)c3=O)c2c1 | Kochia plant response rating | 55 |

Could you now look at the following compound, please?
Item under review: Cn1nc(Br)c(O)c(-c2cccc3ccccc23)c1=O . Reported Kochia plant response rating?
80

---

Recorded Pigweed plant response rating by entry
Test system: pigweed (Amaranthus retroflexus)
Assay Comment: Test A greenhouse herbicide test, pre- and postemergence
Type: in vivo
Settings: Preemergence, 125 g ai/ha; 0 to 100 scale where 0 is no effect and 100 is complete control
Answer with the value's number alone.

| Compound | Pigweed plant response rating |
| --- | --- |
| Cc1nn(C)c(=O)c(-c2c(C)sc3ccc(C(F)(F)F)cc23)c1O [Compound 121] | 100 |

Kindly consider the entry below.
Entry under review: Cc1nn(C)c(=O)c(-c2c(C)sc3ccc(Br)cc23)c1O [Compound 22] . Reported Pigweed plant response rating?
100

---

System: morningglory (Ipomoea coccinea)
Assay Comment: Test C greenhouse herbicide test, pre- and postemergence
Format: in vivo
Settings: Preemergence, 31 g ai/ha; scale 0 to 100, 0 is no effect, 100 is complete control
Excerpt: […]
Assay Readout: Plant response rating, Morningglory

Take a look at these entries with their results.
| Molecular String | Plant response rating, Morningglory |
| --- | --- |
| CC(=O)Oc1c(C)nn(C)c(=O)c1-c1c(C)sc2ccc(C(F)(F)F)cc12 | 40 |
| Cc1nn(C)c(=O)c(-c2ccc(Cl)c3ccccc23)c1O | 85 |
| Cc1ccc2sc(C)c(-c3c(OC(=O)OC(C)C)c(C)nn(C)c3=O)c2c1 | 80 |

Return reported Plant response rating, Morningglory; argument: Cc1ccc2ccccc2c1-c1c(O)c(Br)nn(C)c1=O
85

Given the molecule CCC(=O)Oc1c(C)nn(C)c(=O)c1-c1ccc(Br)c2ccccc12 , what is its reported Plant response rating, Morningglory?
75

Suppose we examine the molecule CCc1ccc2ccccc2c1-c1c(O)c(C)nn(C)c1=O ; what Plant response rating, Morningglory value has been reported?
80

What value of Plant response rating, Morningglory has been recorded for this entry: Cc1ccc2sc(Br)c(-c3c(O)c(C)nn(C)c3=O)c2c1
90

What does the data say about its Plant response rating, Morningglory? Entry: COC(=O)Oc1c(C)nn(C)c(=O)c1-c1ccc(Br)c2ccccc12
75

Would you kindly share the measured Plant response rating, Morningglory for Cc1ccc2ccc(Cl)cc2c1-c1c(O)c(C)nn(C)c1=O ?
90

---

Listed next: entries and their corresponding Plant response rating, Kochia.
Test system: kochia (Kochia scoparia)
Assay Comment: Test E greenhouse herbicide test, pre- and postemergence
Format: in vivo
Settings: 62 g ai/ha, Preemergence; scale 0 to 100 (0 no effect, 100 complete control)
The reply should be a number, written without any unit.

Illustrative cases are given below, each with its answer.
| Molecular String | Endpoint Value |
| --- | --- |
| Cc1ccc2sc(Br)c(-c3c(O)c(C)nn(C)c3=O)c2c1 | 70 |
| COC(=O)Oc1c(C)nn(C)c(=O)c1-c1c(C)sc2ccc(C)cc12 | 100 |
| CCCC(=O)Oc1c(C)nn(C)c(=O)c1-c1c(C)sc2ccc(C)cc12 | 35 |

Next compound, Plant response rating, Kochia to be filled in.
# query: Plant response rating, Kochia | item Cc1nn(C)c(=O)c(-c2ccc(F)c3ccccc23)c1O | system: kochia (Kochia scoparia)
90

---

System: ragweed (common ragweed, Ambrosia elatior)
Assay Comment: Test A greenhouse herbicide test, pre- and postemergence
Format: in vivo
Settings: Preemergence, 125 g ai/ha; 0 to 100 scale where 0 is no effect and 100 is complete control
Mark each entry yes (1) if its Ragweed plant response rating sits below 80, and no (0) for all others.

Examples with answers:
| Molecular String | System Name | Cat |
| --- | --- | --- |
| Cc1sc2ccccc2c1-c1c(O)cnn(C)c1=O | ragweed (common ragweed, Ambrosia elatior) | yes (1) |
| CCc1sc2c(C)cc(C)cc2c1-c1c(O)c(C)nn(C)c1=O | ragweed (common ragweed, Ambrosia elatior) | no (0) |
| CC(=O)Oc1c(Cl)nn(C)c(=O)c1-c1c(C)sc2ccc(Cl)cc12 | ragweed (common ragweed, Ambrosia elatior) | no (0) |
| Cc1cc(C)c2ccccc2c1-c1c(O)c(C)nn(C)c1=O | ragweed (common ragweed, Ambrosia elatior) | no (0) |
| COc1ccc2sc(C)c(-c3c(O)c(C)nn(C)c3=O)c2c1 | ragweed (common ragweed, Ambrosia elatior) | yes (1) |

Please check: Ragweed plant response rating for Cc1nn(C)c(=O)c(-c2c(Cl)n(C)c3ccccc23)c1O , strictly under 80 or not?
yes (1)

Below 80 on Ragweed plant response rating? Entry Cc1nn(C)c(=O)c(-c2c(C)sc3c(C)cc(Cl)cc23)c1O
yes (1)

Is 80 strictly greater than the molecule's reported Ragweed plant response rating? molecule: Cc1ccc2ccccc2c1-c1c(O)c(C(F)(F)F)nn(C)c1=O
no (0)

# strict comparison: is reported Ragweed plant response rating < 80? input = COc1nn(C)c(=O)c(-c2c(C(F)F)ccc3ccccc23)c1O
yes (1)

Answer whether the molecule Cn1ncc(O)c(-c2ccc(F)c3ccccc23)c1=O has Ragweed plant response rating strictly less than 80
yes (1)

Please indicate whether the reported Ragweed plant response rating of CCC(=O)Oc1c(C)nn(C)c(=O)c1-c1ccc(Cl)c2ccccc12 is strictly below 80.
yes (1)

Threshold test, Ragweed plant response rating < 80: Cn1ncc(O)c(-c2cccc3ccccc23)c1=O
yes (1)

Please check: Ragweed plant response rating for Cc1nn(C)c(=O)c(-c2c(C)sc3ccc(C(F)(F)F)cc23)c1O , strictly under 80 or not?
yes (1)

Threshold test, Ragweed plant response rating < 80: Cc1ccc2ccccc2c1-c1c(O)c(Br)nn(C)c1=O
no (0)

Decide: Ragweed plant response rating of CCC(=O)Oc1c(C)nn(C)c(=O)c1-c1ccc(F)c2ccccc12 strictly below 80?
yes (1)
